Please go through the items and note down their GI50.
- Tested on: SNB-19 CNS
- protocol: NCI tumour cell line growth inhibition, 48 h

Look at this molecule and give its reported GI50. `Cc1ccc2c(c1)C(=O)/C(=C/c1ncc([N+](=O)[O-])n1C)O2`
2.36 µM

Fill in the blank: the reported GI50 of `COc1ccc2c(c1)c(-c1nc(-c3cn(C)c4ncccc34)cs1)cn2CCCN1CCCCC1` is ____.
1.9 µM

Which GI50 is listed for CSc1ccc(C2=NN(C(C)=O)C(c3cc(C)cs3)C2)cc1 (stereo not drawn) ?
37 µM

What does the data say about its GI50? Entry: O=C1OCc2c1cc1ccc(O)c(OC3OC(CO)C(O)C(O)C3O)c1c2-c1ccc2c(c1)OCO2 (stereo not drawn)
36 µM

Reported GI50, molecule CC1OC(O[C@H]2C[C@@H](O)[C@]3(CO)[C@H]4[C@H](O)C[C@]5(C)[C@@H](C6=CC(=O)OC6)CC[C@]5(O)[C@@H]4CC[C@]3(O)C2)C(O)C(O)C1O (stereo partly drawn) : ____
18.3 µM

Could you share which GI50 value was measured for `CC1=C(CCCNS(C)(=O)=O)C2=C(C)C3(CC3)[C@@](C)(O)C(=O)C2=C1` ?
1.93 µM

Can you share its GI50? I mean this molecule: `O=C1c2c(c3c4ccccc4n(CCCCCCBr)c3c3[nH]c4ccccc4c23)C(=O)N1O`
4.98 µM

Quick check: GI50 of O=C(NCCOCCOCCNc1cccc2c1C(=O)N(C1CCCNC1=O)C2=O)c1cc2c(o1)C(=O)c1ccccc1C2=O (stereo not drawn) ?
2.42 µM

---

- System: HS 578T breast
- protocol: NCI tumour cell line growth inhibition, 48 h
*1 amine or outer side, *2 acyl side, *3 side chain or, on linkers, in order; H or OH if unused. Where a SMILES comes first, the peptide text is derived from it. Bridges are numbered along the chain shown (N, C = ends). [ ]: non-standard residue; d: D form. The star is where a group is joined. ξ: configuration not given here. X34 = O=C(C(CCCCNO[*:3])N[*:1])[*:2]; Fmoc = O=C(OCC1c2ccccc2-c2ccccc21)*; ξW = NC(Cc1c[nH]c2ccccc12)C(=O)O; ξP = O=C(O)C1CCCN1
For each of the compounds below, state its TGI.

# get_value(readout= TGI, system= HS 578T breast) for OCC1CCCCCCCCCCC12SCCCS2 (configuration not stated)
> 100 µM

Give HS 578T breast TGI for CC1OC(n2cc(F)c(=O)[nH]c2=O)CCC1O (configuration not stated)
> 100 µM

Enter reported TGI observed with HS 578T breast for `CC(C)OP(=O)(OC(C)C)c1c(Nc2ccccc2)n[nH]c1N`
> 100 µM

Give the reported TGI for CCOC(=O)CNC(=O)C(CSCc1ccc(Br)cc1)NC(=O)CCC(N)C(=O)OCC (configuration not stated) (system: HS 578T breast).
> 50 µM

Please provide the recorded TGI for `CC(C)c1ccc2[nH]c(O)c(-c3[nH]c4ccccc4c3N=O)c2c1` , tested on HS 578T breast.
17.7 µM

// fetch HS 578T breast TGI for `COc1cnc2cc(C(=O)O)c3c([N+](=O)[O-])cccc3c2c1`
> 100 µM

Request body: readout TGI, system HS 578T breast, query COc1ccc(C2=NN(C(=O)c3cc(OC)c(OC)c(OC)c3)C(c3ccc(C#N)cc3)C2)cc1OC (configuration not stated) . Return the value.
> 26 µM

Give TGI (HS 578T breast) of the following compound: `COc1cc(-c2cc(=O)c3cc4c(cc3[nH]2)OCO4)cc(OC)c1O`
> 10 µM

Kindly state the measured TGI obtained for C[N+]1=C2[B-](C(C)(C)C)=[N+](C(C)(C)C)[B-]2(C(C)(C)C)[N+](C)=C2[B-](C(C)(C)C)=[N+](C(C)(C)C)[B-]21C(C)(C)C (configuration not stated) with HS 578T breast.
> 100 µM

Give HS 578T breast TGI for `Cc1c(C(=O)N/N=C/c2ccc(Cl)cc2)nnn1-c1ccnc2c(C(F)(F)F)cccc12`
12 µM

What value of TGI on HS 578T breast does `CCOc1cccc(/C=N/NC(=O)c2ccccc2Nc2ccnc(C(F)(F)F)c2)c1O` have?
> 100 µM

API: value(readout=TGI, system=HS 578T breast) for record NC(=O)CNC(=O)C1CCCN1C(=O)C1CCCCNOC(=O)CC[C@@H](NC(=O)OCC2c3ccccc3-c3ccccc32)C(=O)NC(Cc2c[nH]c3ccccc23)C(=O)N1 (some centres not stated) (Fmoc-[dE][ξW][X34][ξP]G-NH2; ester 1-3)
> 100 µM

Observed TGI on HS 578T breast for `O=C1CNCCCN2CCN(CCCNCC(=O)Nc3ccc(cc3)S(=O)(=O)c3ccc(cc3)NC(=O)CNCCCN3CCN(CCCNCC(=O)Nc4ccc(cc4)S(=O)(=O)c4ccc(cc4)N1)CC3)CC2` , please.
> 69.4 µM

Field: TGI (HS 578T breast). Entry: `CC[C@]1(Cc2ccc(OC)c(OC)c2)CN(S(=O)(=O)c2ccc(C)cc2)C[C@@H]1OC(C)=O`
> 100 µM

Form: Entry = `COc1cc(/C=C/c2cc(/C=C/c3ccc(O)c(OC)c3)n(-c3ccccc3)n2)ccc1O` | System = HS 578T breast | TGI = ____
> 23.2 µM

Enter reported TGI observed with HS 578T breast for `NC(=O)N/N=C(\Cc1nc2ccc(Cl)cc2[nH]c1=O)C(=O)Nc1ccc(Cl)cc1Cl`
> 100 µM

Param readout = TGI; param system = HS 578T breast; param query = `Cc1ccc(S(=O)(=O)N(CCOc2ccc(/C(N)=N/Cl)cc2)CCOc2ccc(/C(N)=N\Cl)cc2)cc1` ; response: value
22.7 µM
